Each recorded value in this set is attributed to patent US8598383B2.

test system: iNOS gene expression in BV2 cell line; experiment: Suppressing effect on gene expression (RT-PCR), iNOS; type: cell-based; conditions: Mus musculus, BV-2, 24 h, gene expression vs LPS control, BV2, 24 hours
Property: inhibition at 100 µM (%)
Report as a plain number; the unit % is understood.

// known answers, use as guide
Compound | Measured
O=C(O)c1cc(NCCCc2ccccc2)ccc1O [compound 13] | 15.5
Cc1ccccc1CCNc1ccc(O)c(C(=O)O)c1 [compound 12] | 43.7

Qu. # get_value(readout='inhibition at 100 µM', item= O=C(O)c1cc(NCCCc2ccc(C(F)(F)F)cc2)ccc1O [compound 14] )
Ans. 44.3

Qu. # get_value(readout='inhibition at 100 µM', item= O=C(O)c1cc(NCCc2ccc(F)cc2C(F)(F)F)ccc1O [compound 9] )
Ans. 17.8
